System: normal primary NK cells, pool 2 (3 donors) (IL-2 2.5 ng/mL)
protocol_text: percent inhibition of viability; higher = more inhibition;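 also: normalised to DMSO-only wells as negative and benzethonium chloride as positive control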
measurement_parameters: 72 h; 100 nM
percent inhibition of viability reference
Write the answer as a number in %, unit excluded.

Worked cases, answers included:
1) COc1cc(C(=O)O)ccc1NC(=O)[C@@H]1N[C@@H](CC(C)(C)C)[C@](C#N)(c2ccc(Cl)cc2F)[C@H]1c1cccc(Cl)c1F [Idasanutlin] (max concentration tested 10000 nM); 32.8
2) CS(=O)(=O)c1ccc(C(=O)Nc2ccc(Cl)c(-c3ccccn3)c2)c(Cl)c1 [Vismodegib] (max concentration tested 10000 nM); 4.94
3) Nc1ccn([C@@H]2O[C@H](CO)[C@@H](O)[C@@H]2O)c(=O)n1 [Cytarabine] (max concentration tested 10000 nM); -1.98

query: Query: percent inhibition of viability; subject: O=c1[nH]cc(F)c(=O)[nH]1 [Fluorouracil] (max concentration tested 10000 nM)
result: 10.1

query: For COc1c(C)cnc(Cn2cnc3c(Cl)nc(N)nc32)c1C [BIIB021] (max concentration tested 10000 nM) , what is its reported percent inhibition of viability?
result: 39.7

query: Can you share its percent inhibition of viability? I mean this compound: CN1CCN(c2ccc3nc(-c4c(N)c5c(F)cccc5[nH]c4=O)[nH]c3c2)CC1 [Dovitinib] (max concentration tested 10000 nM)
result: -7.93

====

Measured percent inhibition of viability accompanies every entry in the list below.
Tested on: KHYG-1 (IL-2 2.5 ng/mL)
protocol_text: percent inhibition of viability; higher = more inhibition
measurement_parameters: 72 h; 10 nM
Answer format: numeric, % implied, no suffix.

1) Nc1ncn([C@@H]2O[C@H](CO)[C@@H](O)[C@H]2O)c(=O)n1 [Azacitidine] (max concentration tested 10000 nM); -3.23
2) C=CCc1cccc(/C=N/NC(=O)CN2CCN(Cc3ccccc3)CC2)c1O [PAC-1] (max concentration tested 10000 nM); -1.29
3) COCC(=O)NC/C=C/c1ccc2ncnc(Nc3ccc(Oc4ccc(C)nc4)c(C)c3)c2c1 (max concentration tested 10000 nM); -5.21

query: Form: Entry = O=C(Nc1cccc(C(F)(F)F)c1)Nc1cc(S(=O)(=O)NC2CC2)ccc1-c1ccsc1 [AGI-6780] (max concentration tested 10000 nM) | System = KHYG-1 (IL-2 2.5 ng/mL) | percent inhibition of viability = ____
result: -3.96

query: Recall the recorded percent inhibition of viability for O=C1CN2Cc3c(ccc(Cl)c3Cl)N=C2N1 [Anagrelide] (max concentration tested 10000 nM) with KHYG-1 (IL-2 2.5 ng/mL) and state it.
result: -5.67

query: Form entry - test system: KHYG-1 (IL-2 2.5 ng/mL); read-out: percent inhibition of viability; compound: C#Cc1cccc(Nc2ncnc3cc(OC)c(OCCCCCCC(=O)NO)cc23)c1 [CUDC-101] (max concentration tested 10000 nM)
result: 3.01

query: For KHYG-1 (IL-2 2.5 ng/mL), provide percent inhibition of viability of Nc1nc(F)nc2c1ncn2[C@@H]1O[C@H](CO)[C@@H](O)[C@@H]1O [Fludarabine] (max concentration tested 10000 nM) please.
result: -1.74

query: Give KHYG-1 (IL-2 2.5 ng/mL) percent inhibition of viability for COCC[n+]1c2c(n(Cc3cnccn3)c1C)C(=O)c1ccccc1C2=O [YM155] (max concentration tested 10000 nM)
result: 20.5

query: Item CC[C@H](NC(=O)[C@H](C)NC)C(=O)N1C[C@@H](O)C[C@H]1Cc1c(-c2[nH]c3cc(F)ccc3c2C[C@@H]2C[C@H](O)CN2C(=O)[C@H](CC)NC(=O)[C@H](C)NC)[nH]c2cc(F)ccc12 [Birinapant] (max concentration tested 1000 nM) with KHYG-1 (IL-2 2.5 ng/mL) - percent inhibition of viability?
result: -7.39

query: Give recorded percent inhibition of viability with KHYG-1 (IL-2 2.5 ng/mL) for the following compound: CS(=O)(=O)c1ccc(C(=O)Nc2ccc(Cl)c(-c3ccccn3)c2)c(Cl)c1 [Vismodegib] (max concentration tested 10000 nM)
result: -4.1
